These data points were gathered from patent US20050009849A1.

- Test system: CML progenitors
- EXPERIMENTAL_PROTOCOL: cells
- Type: cell-based, human
- SETUP_CONDITIONS: read-out: IC50 for CML progenitors; varies in different patients
ENDPOINT: IC50

> print(dat)
                              record.smiles  observed.measurement
1  CSc1cccc(Nc2ncc3cc(-c4c(Cl)cccc4Cl)c(=O)n(C)c3n2)c1                 ~2 nM

---

- Test system: CML progenitors
- EXPERIMENTAL_PROTOCOL: cells
- Format: cell-based, human
- SETUP_CONDITIONS: Homo sapiens, read-out: IC50 for CML progenitors, varies in different patients
- Description: In many experiments the CD34+ blasts were further depleted of GM, megakaryocyte or lymphocyte progenitors (CD 13, 14, 15, 46, 61, 19-) or of erythroid and megakaryocyte progenitors (CD36-, Glycophorin-, CD41/61-) in order to study the drug's effects on purer erythroid or GM progenitors.
pIC50: −log10 of the molar value.
ENDPOINT: pIC50

> print(dat)
                              record.smiles  target.under.test  endpoint  observed.measurement
1  CSc1cccc(Nc2ncc3cc(-c4c(Cl)cccc4Cl)c(=O)n(C)c3n2)c1    CML progenitors     pIC50          8.12 to 8.82

---

- System: parental Ba/F3 cells
- EXPERIMENTAL_PROTOCOL: MTS proliferation, parental Ba/F3 cells
- Format: cell-based
- SETUP_CONDITIONS: read-out: IC50, unspecific growth inhibition
ENDPOINT: IC50 (nM)

> print(dat)
                                   compound  observed.measurement
1  Cc1cc(Nc2ncc3cc(-c4c(Cl)cccc4Cl)c(=O)n(C)c3n2)ccc1F [PD180970]                   830

---

- EXPERIMENTAL_PROTOCOL: Serial plasma levels in mice (bioavailability)
- Type: in vivo
- SETUP_CONDITIONS: mouse, oral, read-out: bioavailability after oral administration relative to intravenous or intraperitoneal injection
ENDPOINT: bioavailability

> print(dat)
                              record.smiles         endpoint  observed.measurement
1  Cn1c(=O)c(-c2c(Cl)cccc2Cl)cc2cnc(Nc3cccc(CO)c3)nc21  bioavailability                   ~8%

---

- EXPERIMENTAL_PROTOCOL: Pharmacokinetics in B6D2F1 mice
- Type: in vivo
- SETUP_CONDITIONS: B6D2F1, mouse, plasma, 1 mg; po vs iv
ENDPOINT: bioavailability

> print(dat)
                              record.smiles         endpoint  observed.measurement
1  Cn1c(=O)c(-c2c(Cl)cccc2Cl)cc2cnc(Nc3cccc(CO)c3)nc21  bioavailability                  6.6%
2  Cn1c(=O)c(-c2c(Cl)cccc2Cl)cc2cnc(Nc3cccc(N)c3)nc21  bioavailability                    4%
